The reported numbers originate from ChEMBL document CHEMBL1268828.

Tested on: HepG2
Assay: Cytotoxicity against human HepG2 cells assessed as inhibition of cell proliferation after 24 hrs by SRB assay
Format: functional, cell-based
Settings: HepG2, 24 h
pIC50: −log10 of the molar value.
Listed here are molecules together with their documented pIC50.
Metric Name: pIC50

[[record]]
query_smiles = "Nc1ncnc2c1c(-c1ccccc1)cn2-c1ccc(S(=O)(=O)Nc2ccccn2)cc1"
target_or_test_system = "HepG2"
numeric_readout = 5.39

[[record]]
query_smiles = "N#Cc1c(-c2ccccc2)cn(-c2ccc(S(=O)(=O)Nc3nccs3)cc2)c1NC(N)=O"
target_or_test_system = "HepG2"
numeric_readout = 5.40

[[record]]
query_smiles = "Nc1nc(=S)[nH]c2c1c(-c1ccccc1)cn2-c1ccc(S(=O)(=O)Nc2ccccn2)cc1"
target_or_test_system = "HepG2"
numeric_readout = 5.39

[[record]]
query_smiles = "CC(=O)Nc1c(C#N)c(-c2ccccc2)cn1-c1ccc(S(=O)(=O)Nc2nccs2)cc1"
target_or_test_system = "HepG2"
numeric_readout = 5.40

